Below, each of the molecules is paired with its reported IC50 value.
# system: GSK3b (GST-full length GSK3b) (Homo sapiens)
# Construct: GST-full length GSK3b: [SignalChem G08-9G]; purchased SignalChem G08-9G
# Sequence (P49841 whole entry): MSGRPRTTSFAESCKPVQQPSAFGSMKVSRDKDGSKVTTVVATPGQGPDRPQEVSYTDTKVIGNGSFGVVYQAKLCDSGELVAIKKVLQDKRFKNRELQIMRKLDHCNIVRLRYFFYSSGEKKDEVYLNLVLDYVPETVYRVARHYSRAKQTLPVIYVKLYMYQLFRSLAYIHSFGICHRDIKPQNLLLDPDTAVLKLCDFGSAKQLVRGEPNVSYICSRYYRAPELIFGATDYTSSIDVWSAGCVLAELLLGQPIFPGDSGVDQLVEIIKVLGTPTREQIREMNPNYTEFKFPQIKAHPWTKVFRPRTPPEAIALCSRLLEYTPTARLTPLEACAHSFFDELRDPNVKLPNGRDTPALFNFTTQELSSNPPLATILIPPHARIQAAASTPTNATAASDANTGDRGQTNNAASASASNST
# testSummary: GSK3b TR-FRET kinase inhibition assay
# Assay type: biochemical
# measurementSetup: 1 mM ATP; Table 5; read-out: GSK3β TR-FRET 1 mM ATP Average IC50

The following molecules have reported results that may help.
# IC50 lookup, item CC1(C)CC2=C(C(=O)[C@@H]1F)[C@](C)(c1ccccc1)c1c(ncc(F)c1C#N)N2 (single isomer, unassigned) [Compound 616B]
0.1 to 1 µM

For CC1(C)CC2=C(C(=O)N1)C(C)(c1ccccc1)c1c(ncc(C(F)F)c1C#N)N2 (single isomer, unassigned) [628A] , what is its reported IC50?
1 to 5 µM

Here's the next entry for you.
// IC50 lookup, key: CC1(C)CC2=C(C(=O)[C@@H]1F)[C@@](C)(c1ccccc1)c1c(ncc(F)c1C#N)N2 (single isomer, unassigned) [Compound 616A]
0.1 to 1 µM

Reference for the values: patent US20260103465A1
